From: ChEMBL document CHEMBL4619774

- procedureSummary: Clearance in Sprague-Dawley rat at 1 mg/kg, iv by HPLC-MS/MS analysis
- Type: ADME, organism-based
- conditionsUsed: in vivo
quantityName: clearance (mL/min/kg)
Write the number in mL/min/kg without appending the unit.

Need clearance of `CC(C)c1cc(-c2ccc3c(c2)[C@H](N)CO3)cc([C@H](O)Cn2ccc3cccc(C(=O)O)c32)c1` , thanks. 9.4

====

- procedureSummary: Volume of distribution at steady state in C57BL/6 mouse at 1 mg/kg, iv bolus injection or 10 mg/kg, po by LC-MS/MS analysis
- Assay type: ADME, organism-based
- conditionsUsed: in vivo, read-out: Vdss
quantityName: Vd (L/kg)
Write the number in L/kg without appending the unit.

Need Vd of `NCc1cccc(-c2cccc(COc3ccccc3CC(=O)O)c2)c1` , thanks. 0.7
